# MEASUREMENT_TARGET: human CYP19A1 (aromatase) (Homo sapiens)
# METHOD_SUMMARY: cell-based
# Design: Yeast expressing human CYP19A1/CPR converts testosterone; estradiol in supernatant read by yeast biosensor, flow cytometry
# CONDITION_DETAILS: read-out: % inhibition (10 μM)
Reported inhibition at 10 µM values for a set of compounds
READOUT: inhibition at 10 µM (%)

| COMPOUND | MEASUREMENT_TARGET | READOUT | ASSAY_RESULT |
| --- | --- | --- | --- |
| O=C(Cc1c(F)cccc1Cl)N1CCC(Cn2ccnc2)CC1 | human CYP19A1 (aromatase) (Homo sapiens) | inhibition at 10 µM | 22.8 |
| O=C(NCc1ccc(-n2ccnc2)cc1)c1cc2ccccc2oc1=O | human CYP19A1 (aromatase) (Homo sapiens) | inhibition at 10 µM | 87.4 |
| CC(NC(=O)c1cc2cc(Cl)ccc2oc1=O)c1ccc(-n2ccnc2)cc1 (stereo not shown) | human CYP19A1 (aromatase) (Homo sapiens) | inhibition at 10 µM | 96.7 |
| N#Cc1ccc(C(c2ccc(C#N)cc2)n2cncn2)cc1 | human CYP19A1 (aromatase) (Homo sapiens) | inhibition at 10 µM | 80.4 |
| CC1(c2ccc(Cl)cc2Cl)OCC(Cn2cncn2)O1 (stereo not shown) | human CYP19A1 (aromatase) (Homo sapiens) | inhibition at 10 µM | 81.7 |
| COc1ccc(-c2cn3cccnc3n2)cc1NC(=O)Nc1ccc(F)cc1 | human CYP19A1 (aromatase) (Homo sapiens) | inhibition at 10 µM | 25.6 |
| O=c1cc(Cn2ccnc2)c2cc(O)c(-c3ccccc3)cc2o1 | human CYP19A1 (aromatase) (Homo sapiens) | inhibition at 10 µM | 38.1 |
| O=C(NCc1ccc(-n2ccnc2)cc1)C1=Cc2cc(Cl)ccc2OC1 | human CYP19A1 (aromatase) (Homo sapiens) | inhibition at 10 µM | 85 |
| CSc1ccc2nc(N3CC(Cn4ccnc4)C3)sc2c1 | human CYP19A1 (aromatase) (Homo sapiens) | inhibition at 10 µM | 30.9 |
| O=C(Nc1cccc(-c2cn3cccnc3n2)c1)c1ccc(Cl)cc1Cl | human CYP19A1 (aromatase) (Homo sapiens) | inhibition at 10 µM | 25.9 |

###

Reported inhibition at 1 µM values for a set of compounds
# MEASUREMENT_TARGET: human CYP19A1 (aromatase) (Homo sapiens)
# METHOD_SUMMARY: cell-based
# Parameters: Yeast expressing human CYP19A1/CPR converts testosterone; estradiol in supernatant read by yeast biosensor, flow cytometry
# CONDITION_DETAILS: read-out: % inhibition (1 μM)

| COMPOUND | VALUE_UNITS | inhibition at 1 µM |
| --- | --- | --- |
| O=C(NCc1ccc(-n2ccnc2)cc1)C1=Cc2cc(Cl)ccc2OC1 | % | 43.8 |
| CC1(c2ccc(Cl)cc2Cl)OCC(Cn2cncn2)O1 (stereo not shown) | % | 44.3 |
| O=C(NCc1ccc(-n2ccnc2)cc1)c1cc2ccccc2oc1=O | % | 51.9 |
| CC(NC(=O)c1cc2cc(Cl)ccc2oc1=O)c1ccc(-n2ccnc2)cc1 (stereo not shown) | % | 89.7 |

###

# MEASUREMENT_TARGET: human CYP19A1 (aromatase) (Homo sapiens, UniProt P11511)
# Sequence (P11511 whole entry): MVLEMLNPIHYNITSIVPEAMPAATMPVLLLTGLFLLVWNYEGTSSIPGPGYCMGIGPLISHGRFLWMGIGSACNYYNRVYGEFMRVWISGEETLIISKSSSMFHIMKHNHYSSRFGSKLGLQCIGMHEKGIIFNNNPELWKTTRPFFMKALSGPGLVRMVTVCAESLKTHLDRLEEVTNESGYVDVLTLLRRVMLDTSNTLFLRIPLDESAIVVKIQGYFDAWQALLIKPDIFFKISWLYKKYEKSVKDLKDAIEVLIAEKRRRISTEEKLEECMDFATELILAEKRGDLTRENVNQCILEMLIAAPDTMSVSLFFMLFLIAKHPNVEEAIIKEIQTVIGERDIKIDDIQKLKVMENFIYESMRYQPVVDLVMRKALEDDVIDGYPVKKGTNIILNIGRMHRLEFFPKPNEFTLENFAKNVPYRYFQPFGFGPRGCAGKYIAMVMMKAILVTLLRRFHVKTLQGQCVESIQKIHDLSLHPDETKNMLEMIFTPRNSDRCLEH
# Sequence (P16435 2-677 partner): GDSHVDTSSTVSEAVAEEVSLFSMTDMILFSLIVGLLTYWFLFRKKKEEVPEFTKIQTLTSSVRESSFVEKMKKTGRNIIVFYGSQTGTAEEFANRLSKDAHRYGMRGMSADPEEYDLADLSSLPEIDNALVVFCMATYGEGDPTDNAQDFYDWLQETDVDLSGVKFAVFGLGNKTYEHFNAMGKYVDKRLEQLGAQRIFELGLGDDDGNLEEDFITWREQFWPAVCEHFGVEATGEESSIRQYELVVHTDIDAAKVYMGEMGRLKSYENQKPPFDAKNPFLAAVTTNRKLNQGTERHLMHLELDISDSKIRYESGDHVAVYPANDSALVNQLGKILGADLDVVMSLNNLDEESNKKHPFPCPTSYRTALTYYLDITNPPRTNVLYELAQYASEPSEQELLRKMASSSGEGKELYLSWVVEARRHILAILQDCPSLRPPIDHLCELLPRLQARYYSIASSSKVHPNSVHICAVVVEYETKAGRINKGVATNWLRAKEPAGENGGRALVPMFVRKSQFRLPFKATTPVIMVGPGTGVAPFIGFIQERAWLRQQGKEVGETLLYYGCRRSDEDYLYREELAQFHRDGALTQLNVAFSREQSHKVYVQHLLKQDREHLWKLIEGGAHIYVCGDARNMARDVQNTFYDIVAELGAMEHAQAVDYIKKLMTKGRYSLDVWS
# METHOD_SUMMARY: aromatase inhibition in yeast expressing human CYP19A1 and CPR, estradiol biosensor (yEGFP, flow cytometry)
Reported IC50 values for a set of molecules

| MOLECULE | IC50 (nM) |
| --- | --- |
| CC1(c2ccc(Cl)cc2Cl)OCC(Cn2cncn2)O1 (stereo not shown) | 1130 |
| O=C(NCc1ccc(-n2ccnc2)cc1)c1cc2ccccc2oc1=O | 1040 |
| CC(NC(=O)c1cc2cc(Cl)ccc2oc1=O)c1ccc(-n2ccnc2)cc1 (racemic) | 271 |
| O=C(NCc1ccc(-n2ccnc2)cc1)C1=Cc2cc(Cl)ccc2OC1 | 1250 |
